Test system: Schistosoma mansoni
Assay: Probability that there was effect on carbachol response
Assay type: functional
QUANTITY: Probability

These recorded examples may help you get a feel for the data.
Br.Br.NCCCCC[PH](c1ccccc1)(c1ccccc1)c1ccccc1 = <0.05
BrCCC[P+](c1ccccc1)(c1ccccc1)c1ccccc1.[Br-] = <0.01
Br.Br.CCCCCCNCCC[PH](c1ccccc1)(c1ccccc1)c1ccccc1 = <0.0001
Br.Br.CCNCCC[PH](c1ccccc1)(c1ccccc1)c1ccccc1 = <0.05
[Br-].[Br-].c1ccc([P+](CCCCCC[P+](c2ccccc2)(c2ccccc2)c2ccccc2)(c2ccccc2)c2ccccc2)cc1 = <0.001

Now look at this one.
Input: Provide one value: measured Probability of [Br-].[Br-].c1ccc([P+](CC[P+](c2ccccc2)(c2ccccc2)c2ccccc2)(c2ccccc2)c2ccccc2)cc1
Output: <0.001

The values you see were collected from ChEMBL document CHEMBL1121488.
